Values from patent US12208140B2

Target: DYRK2 (Homo sapiens)
Sequence (Q92630 1-601): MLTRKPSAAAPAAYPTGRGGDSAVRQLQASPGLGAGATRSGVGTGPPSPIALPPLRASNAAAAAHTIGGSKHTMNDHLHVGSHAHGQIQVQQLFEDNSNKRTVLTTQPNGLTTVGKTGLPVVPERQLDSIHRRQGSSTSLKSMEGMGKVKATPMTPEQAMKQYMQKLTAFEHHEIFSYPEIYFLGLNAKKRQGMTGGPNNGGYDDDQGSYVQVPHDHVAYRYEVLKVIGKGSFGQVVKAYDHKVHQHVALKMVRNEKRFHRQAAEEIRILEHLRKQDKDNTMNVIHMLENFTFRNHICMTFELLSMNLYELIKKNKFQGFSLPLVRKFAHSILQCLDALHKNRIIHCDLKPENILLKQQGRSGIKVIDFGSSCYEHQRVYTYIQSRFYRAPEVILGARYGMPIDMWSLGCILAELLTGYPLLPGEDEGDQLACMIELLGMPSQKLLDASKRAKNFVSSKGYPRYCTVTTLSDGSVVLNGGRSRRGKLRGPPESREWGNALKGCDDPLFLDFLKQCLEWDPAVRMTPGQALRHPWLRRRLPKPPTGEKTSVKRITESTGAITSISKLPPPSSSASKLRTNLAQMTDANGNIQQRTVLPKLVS
Parameter: pIC50
Give bare numbers, as −log10 of the molar value.

Request: DYRK2 (Homo sapiens) / pIC50 / Nc1ncnc2c1c(I)cn2[C@@H]1O[C@H](CO)[C@@H](O)[C@H]1O : value?
Result: 8.22

* * *

Biological target: CLK2 (Homo sapiens, UniProt P49760)
Sequence (P49760 whole entry): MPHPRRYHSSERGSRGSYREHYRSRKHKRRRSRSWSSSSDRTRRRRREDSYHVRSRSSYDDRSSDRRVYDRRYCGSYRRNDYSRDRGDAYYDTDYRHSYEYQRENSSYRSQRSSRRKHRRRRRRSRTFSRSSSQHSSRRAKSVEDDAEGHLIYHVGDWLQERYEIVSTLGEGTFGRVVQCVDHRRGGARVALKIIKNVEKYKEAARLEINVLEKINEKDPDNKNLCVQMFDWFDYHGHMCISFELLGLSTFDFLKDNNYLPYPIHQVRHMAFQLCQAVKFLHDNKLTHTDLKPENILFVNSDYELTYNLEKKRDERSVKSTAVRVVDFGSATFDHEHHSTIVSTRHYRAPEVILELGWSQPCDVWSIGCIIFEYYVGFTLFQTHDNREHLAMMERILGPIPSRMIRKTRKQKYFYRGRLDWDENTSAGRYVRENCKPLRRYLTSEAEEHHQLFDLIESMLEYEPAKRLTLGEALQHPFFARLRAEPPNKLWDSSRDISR
Parameter: IC50 (nM)
Answers are plain numbers, in nM.

Request: Fill in the blank: the reported IC50 of Nc1ncnc2c1c(I)cn2[C@@H]1O[C@H](CO)[C@@H](O)[C@H]1O is ____.
Result: 10
